molecular target: Neuronal acetylcholine receptor; alpha4/beta2 (Rattus norvegicus, UniProt P09483+P12390); assay: Agonist activity at rat alpha4beta2 nAChR expressed in HEK293 cells for 2 mins by FLIPR assay
Sequence (P09483 whole entry): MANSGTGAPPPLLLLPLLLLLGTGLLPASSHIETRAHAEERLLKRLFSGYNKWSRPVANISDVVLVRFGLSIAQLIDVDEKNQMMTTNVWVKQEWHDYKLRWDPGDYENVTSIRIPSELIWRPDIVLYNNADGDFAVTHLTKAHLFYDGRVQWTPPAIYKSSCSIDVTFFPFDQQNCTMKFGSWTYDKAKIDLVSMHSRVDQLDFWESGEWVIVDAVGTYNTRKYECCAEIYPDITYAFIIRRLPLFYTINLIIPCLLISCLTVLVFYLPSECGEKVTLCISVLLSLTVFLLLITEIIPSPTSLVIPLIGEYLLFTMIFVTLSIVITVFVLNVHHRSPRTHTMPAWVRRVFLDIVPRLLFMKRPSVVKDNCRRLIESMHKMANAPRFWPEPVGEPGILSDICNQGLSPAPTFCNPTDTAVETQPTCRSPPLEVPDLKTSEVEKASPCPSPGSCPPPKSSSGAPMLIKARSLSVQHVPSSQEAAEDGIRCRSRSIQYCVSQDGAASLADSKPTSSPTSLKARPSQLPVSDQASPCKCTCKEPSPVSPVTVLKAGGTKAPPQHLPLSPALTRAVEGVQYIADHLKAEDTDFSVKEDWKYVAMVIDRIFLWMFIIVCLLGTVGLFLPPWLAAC
Sequence (P12390 whole entry): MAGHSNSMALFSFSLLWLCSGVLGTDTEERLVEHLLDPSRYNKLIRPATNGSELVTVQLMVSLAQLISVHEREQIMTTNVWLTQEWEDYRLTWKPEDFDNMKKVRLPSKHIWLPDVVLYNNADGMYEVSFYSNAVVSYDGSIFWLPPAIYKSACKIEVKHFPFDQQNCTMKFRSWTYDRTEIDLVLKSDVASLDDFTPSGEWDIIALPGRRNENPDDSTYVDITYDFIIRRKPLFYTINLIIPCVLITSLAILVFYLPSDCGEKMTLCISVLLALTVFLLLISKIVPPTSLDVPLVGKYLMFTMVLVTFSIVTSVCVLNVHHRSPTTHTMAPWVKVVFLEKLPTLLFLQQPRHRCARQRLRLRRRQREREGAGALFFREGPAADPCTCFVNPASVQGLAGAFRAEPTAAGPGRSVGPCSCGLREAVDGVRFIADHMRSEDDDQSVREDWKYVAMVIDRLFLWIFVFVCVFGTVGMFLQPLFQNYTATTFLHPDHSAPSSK

>  <smiles>
COc1ccc2nc(NC3=NC[C@@]4(CN5CCC4CC5)O3)sc2c1

>  <EC50>
> 100 µM

$$$$
>  <smiles>
c1ccc2cc(NC3=NC[C@@]4(CN5CCC4CC5)O3)ncc2c1

>  <EC50>
> 100 µM

$$$$

----------
molecular target: Neuronal acetylcholine receptor subunit alpha-7 (Rattus norvegicus, UniProt Q05941); assay: Displacement of [125I]Tyr54-alpha-bungarotoxin from rat alpha7 nAChR expressed in HEK293 cell membranes co-expressing human RIC3 measured after 2 hrs by gamma counting method
Sequence (Q05941 whole entry): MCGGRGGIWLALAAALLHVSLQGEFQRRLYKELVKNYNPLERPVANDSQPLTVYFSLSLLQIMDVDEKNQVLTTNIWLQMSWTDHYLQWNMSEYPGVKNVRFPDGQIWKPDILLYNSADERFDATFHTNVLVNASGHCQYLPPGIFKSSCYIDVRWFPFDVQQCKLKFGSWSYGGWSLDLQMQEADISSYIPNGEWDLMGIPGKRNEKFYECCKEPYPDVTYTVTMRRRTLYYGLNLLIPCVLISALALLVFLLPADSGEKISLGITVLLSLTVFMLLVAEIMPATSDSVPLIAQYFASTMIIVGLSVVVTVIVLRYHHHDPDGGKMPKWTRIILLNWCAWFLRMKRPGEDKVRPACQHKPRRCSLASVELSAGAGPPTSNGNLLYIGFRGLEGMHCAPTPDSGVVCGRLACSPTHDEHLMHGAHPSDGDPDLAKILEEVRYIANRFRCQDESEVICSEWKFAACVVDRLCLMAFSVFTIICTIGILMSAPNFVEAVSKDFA
pKi: −log10 of the molar value.
measured_metric: pKi

>  <smiles>
COc1ccc2nc(NC3=NC[C@@]4(CN5CCC4CC5)O3)sc2c1

>  <tested_on>
Neuronal acetylcholine receptor subunit alpha-7 (Rattus norvegicus, UniProt Q05941)

>  <result>
7.29 to 7.42

$$$$

----------
Readings of EC50 for the listed compounds
target: Nicotinic acetylcholine receptor alpha-1/beta-1/delta/epsilon (Rattus norvegicus, UniProt P09660+P25108+P25109+P25110); experiment: Agonist activity at rat alpha1beta1deltaepsilon nAChR expressed in HEK293 cells for 2 mins by FLIPR assay
Sequence (P25109 whole entry): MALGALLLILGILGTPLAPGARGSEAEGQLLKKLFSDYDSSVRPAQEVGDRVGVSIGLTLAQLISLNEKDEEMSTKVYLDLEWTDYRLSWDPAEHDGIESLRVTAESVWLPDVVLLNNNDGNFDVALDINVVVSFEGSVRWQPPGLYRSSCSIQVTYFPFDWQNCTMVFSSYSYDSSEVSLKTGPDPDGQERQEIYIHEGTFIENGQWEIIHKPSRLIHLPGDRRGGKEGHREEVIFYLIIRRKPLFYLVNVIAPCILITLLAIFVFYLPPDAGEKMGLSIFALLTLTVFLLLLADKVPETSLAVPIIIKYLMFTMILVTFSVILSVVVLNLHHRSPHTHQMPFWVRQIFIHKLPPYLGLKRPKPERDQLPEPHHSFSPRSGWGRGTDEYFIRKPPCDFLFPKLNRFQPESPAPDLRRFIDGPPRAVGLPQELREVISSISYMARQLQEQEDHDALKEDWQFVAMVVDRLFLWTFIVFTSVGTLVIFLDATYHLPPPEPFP
Sequence (P25108 whole entry): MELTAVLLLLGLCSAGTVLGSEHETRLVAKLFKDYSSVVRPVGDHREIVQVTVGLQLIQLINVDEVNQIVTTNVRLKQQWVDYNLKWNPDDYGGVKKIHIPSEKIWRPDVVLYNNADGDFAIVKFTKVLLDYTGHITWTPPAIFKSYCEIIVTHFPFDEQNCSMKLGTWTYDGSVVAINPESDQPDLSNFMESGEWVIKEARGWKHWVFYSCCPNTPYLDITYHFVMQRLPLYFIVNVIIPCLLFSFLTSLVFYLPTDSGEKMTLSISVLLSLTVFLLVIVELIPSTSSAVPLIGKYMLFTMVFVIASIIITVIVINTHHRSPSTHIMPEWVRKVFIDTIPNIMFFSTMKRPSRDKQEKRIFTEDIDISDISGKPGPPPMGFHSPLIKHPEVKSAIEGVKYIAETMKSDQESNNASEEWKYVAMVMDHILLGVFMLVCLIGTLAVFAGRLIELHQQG
Sequence (P25110 whole entry): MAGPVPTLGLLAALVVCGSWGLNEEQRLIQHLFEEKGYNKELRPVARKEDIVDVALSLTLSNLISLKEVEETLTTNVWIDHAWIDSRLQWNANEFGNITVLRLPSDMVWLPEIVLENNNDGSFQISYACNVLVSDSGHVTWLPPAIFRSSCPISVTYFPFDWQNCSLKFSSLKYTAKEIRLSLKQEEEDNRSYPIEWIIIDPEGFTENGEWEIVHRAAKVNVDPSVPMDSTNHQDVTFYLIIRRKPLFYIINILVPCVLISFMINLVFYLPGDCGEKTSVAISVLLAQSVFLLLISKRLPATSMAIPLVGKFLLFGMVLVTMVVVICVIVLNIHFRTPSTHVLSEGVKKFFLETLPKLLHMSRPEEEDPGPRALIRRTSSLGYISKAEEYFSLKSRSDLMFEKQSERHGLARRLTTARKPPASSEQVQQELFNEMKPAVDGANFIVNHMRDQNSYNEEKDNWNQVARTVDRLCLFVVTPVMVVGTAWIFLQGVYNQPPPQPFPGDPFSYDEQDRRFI
Sequence (P09660 whole entry): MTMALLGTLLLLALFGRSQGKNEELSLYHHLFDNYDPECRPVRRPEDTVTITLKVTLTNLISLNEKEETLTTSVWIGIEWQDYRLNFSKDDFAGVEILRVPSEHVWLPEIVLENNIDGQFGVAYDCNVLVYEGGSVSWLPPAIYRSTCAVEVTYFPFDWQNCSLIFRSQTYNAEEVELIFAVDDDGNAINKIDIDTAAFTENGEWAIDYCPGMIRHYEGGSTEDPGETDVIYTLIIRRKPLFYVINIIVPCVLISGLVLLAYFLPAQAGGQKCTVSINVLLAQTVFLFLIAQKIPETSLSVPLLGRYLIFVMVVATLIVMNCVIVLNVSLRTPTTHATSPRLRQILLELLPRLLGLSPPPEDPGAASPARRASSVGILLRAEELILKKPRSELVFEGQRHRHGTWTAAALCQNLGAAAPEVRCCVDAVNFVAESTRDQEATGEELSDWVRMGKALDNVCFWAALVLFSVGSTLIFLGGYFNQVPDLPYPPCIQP

>  <smiles>
COc1ccc2nc(NC3=NC[C@@]4(CN5CCC4CC5)O3)sc2c1

>  <EC50>
> 100 µM

$$$$
>  <smiles>
c1ccc2cc(NC3=NC[C@@]4(CN5CCC4CC5)O3)ncc2c1

>  <EC50>
> 100 µM

$$$$

----------
biological target: UniProt:P10635; experiment: Inhibition of human CYP2D6; assay type: ADME
Sequence (P10635 whole entry): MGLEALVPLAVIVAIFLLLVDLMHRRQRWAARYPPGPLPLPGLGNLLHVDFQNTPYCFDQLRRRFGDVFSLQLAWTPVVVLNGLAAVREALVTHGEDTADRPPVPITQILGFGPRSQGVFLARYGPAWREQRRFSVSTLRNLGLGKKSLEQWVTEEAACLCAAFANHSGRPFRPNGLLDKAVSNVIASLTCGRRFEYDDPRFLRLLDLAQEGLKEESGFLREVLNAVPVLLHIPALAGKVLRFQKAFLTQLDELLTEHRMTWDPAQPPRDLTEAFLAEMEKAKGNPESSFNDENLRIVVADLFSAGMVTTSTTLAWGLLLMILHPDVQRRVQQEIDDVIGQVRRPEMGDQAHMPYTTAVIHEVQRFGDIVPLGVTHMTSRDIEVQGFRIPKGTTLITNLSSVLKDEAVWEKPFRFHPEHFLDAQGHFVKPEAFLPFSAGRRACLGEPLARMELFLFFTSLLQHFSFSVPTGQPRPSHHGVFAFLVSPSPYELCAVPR

>  <smiles>
c1ccc2cc(NC3=NC[C@@]4(CN5CCC4CC5)O3)ncc2c1

>  <tested_on>
UniProt:P10635

>  <IC50>
> 40 µM

$$$$

----------
Entries and their remaining at 10 min values follow.
test: Metabolic stability in mouse microsomes assessed as compound remaining measured after 10 mins; type: ADME, Microsome; details: read-out: Stability

>  <smiles>
c1ccc2cc(NC3=NC[C@@]4(CN5CCC4CC5)O3)ncc2c1

>  <remaining at 10 min>
1%

$$$$
>  <smiles>
COc1ccc2nc(NC3=NC[C@@]4(CN5CCC4CC5)O3)sc2c1

>  <remaining at 10 min>
> 60%

$$$$

----------
biological target: Neuronal acetylcholine receptor subunit alpha-7 (Rattus norvegicus); test: Agonist activity at rat alpha7 nAChR expressed in HEK293 cells co-expressing human RIC3 measured for 2 mins by FLIPR assay; format: cell-based
Would you mind classing the entries by EC50? Ranges: low bracket: < 300 nM; middle bracket: ≥ 300 nM and < 1000 nM; high bracket: ≥ 1000 nM

>  <compound>
c1ccc2sc(NC3=NCC4(CN5CCC4C5)O3)nc2c1 (racemic)

>  <class_name>
low bracket

$$$$
>  <compound>
Cc1ccc2nc(NC3=NCC4(CN5CCC4CC5)O3)sc2c1 (stereo not given)

>  <class_name>
low bracket

$$$$
>  <compound>
c1csc(NC2=NCC3(CN4CCC3CC4)O2)n1 (racemic)

>  <class_name>
low bracket

$$$$
>  <compound>
c1ccc2sc(NC3=NCC4(CN5CCC[C@@H]4C5)O3)nc2c1 (mixture of isomers)

>  <class_name>
low bracket

$$$$
>  <compound>
c1nc2cc(NC3=NCC4(CN5CCC4CC5)O3)ccc2s1 (racemic)

>  <class_name>
high bracket

$$$$
>  <compound>
CCOc1ccc2nc(NC3=NCC4(CN5CCC4CC5)O3)sc2c1 (stereo not given)

>  <class_name>
middle bracket

$$$$
>  <compound>
COc1ccc2nc(NC3=NC[C@]4(CN5CCC4CC5)O3)sc2c1

>  <class_name>
high bracket

$$$$
>  <compound>
COc1cccc2sc(NC3=NCC4(CN5CCC4CC5)O3)nc12 (stereo not given)

>  <class_name>
middle bracket

$$$$
>  <compound>
COc1ccc2sc(NC3=NCC4(CN5CCC4CC5)O3)nc2c1 (stereo not given)

>  <class_name>
high bracket

$$$$
>  <compound>
c1ccc(-c2ccc(NC3=NC[C@@]4(CN5CCC4CC5)O3)nc2)cc1

>  <class_name>
middle bracket

$$$$
>  <compound>
COc1cc2nc(NC3=NCC4(CN5CCC4CC5)O3)sc2cc1OC (stereo not given)

>  <class_name>
high bracket

$$$$
>  <compound>
c1cncc(/N=C2\NCC3(CN4CCC3CC4)O2)c1 (racemic)

>  <class_name>
high bracket

$$$$
>  <compound>
COc1ccc2nc(NC3=NCC4(CN5CCC4CC5)O3)sc2c1 (stereo not given)

>  <class_name>
low bracket

$$$$
>  <compound>
c1ccc(-c2cnc(NC3=NCC4(CN5CCC4CC5)O3)s2)cc1 (racemic)

>  <class_name>
middle bracket

$$$$
>  <compound>
c1ccc2sc(NC3=NC[C@@]4(CN5CCC4CC5)O3)nc2c1

>  <class_name>
low bracket

$$$$
>  <compound>
c1cc(NC2=NCC3(CN4CCC3CC4)O2)ccn1 (racemic)

>  <class_name>
high bracket

$$$$
>  <compound>
COc1ccc2nc(NC3=NC4(CO3)CN3CCC4CC3)sc2c1 (stereo not given)

>  <class_name>
high bracket

$$$$
>  <compound>
COc1ccc2nc(/N=C3/OC4(CN5CCC4CC5)CN3C)sc2c1 (stereo not given)

>  <class_name>
high bracket

$$$$
>  <compound>
c1ccc(-c2csc(NC3=NCC4(CN5CCC4CC5)O3)n2)cc1 (racemic)

>  <class_name>
middle bracket

$$$$
>  <compound>
c1ccc2sc(NC3=NC[C@]4(CN5CCC4CC5)O3)nc2c1

>  <class_name>
high bracket

$$$$
>  <compound>
Clc1ccc2nc(NC3=NCC4(CN5CCC4CC5)O3)sc2c1 (stereo not given)

>  <class_name>
low bracket

$$$$
>  <compound>
c1ccc2c(NC3=NC[C@@]4(CN5CCC4CC5)O3)nccc2c1

>  <class_name>
low bracket

$$$$
>  <compound>
c1ccc2sc(NC3=NC[C@@]4(CN5CC[C@@H]4C5)O3)nc2c1

>  <class_name>
low bracket

$$$$
>  <compound>
c1ccc2sc(NC3=NCC4(CN5CCCC4C5)O3)nc2c1 (racemic)

>  <class_name>
middle bracket

$$$$
>  <compound>
COc1ccc2nc(NC3=NCCC4(CN5CCC4CC5)O3)sc2c1 (stereo not given)

>  <class_name>
high bracket

$$$$
>  <compound>
COc1ccc2nc(NC3=NC[C@@]4(CN5CCC4CC5)O3)sc2c1

>  <class_name>
low bracket

$$$$
>  <compound>
c1ccc(NC2=NCC3(CN4CCC3CC4)O2)cc1 (racemic)

>  <class_name>
high bracket

$$$$
>  <compound>
c1ccc2nc(NC3=NC[C@@]4(CN5CCC4CC5)O3)ccc2c1

>  <class_name>
low bracket

$$$$
